In this section, each of the compounds is paired with its reported Ki.
# TARGET UNDER TEST: Cyclin Dependent Kinase 2/Cyclin E1 (CDK2-cycE1) (Homo sapiens)
# Construct: purchased ProQinase 0050-0055-1
# PROTOCOL SUMMARY: CDK2-cycE1 TR-FRET (LANCE) enzyme assay
# Assay type: biochemical
# REPORTED CONDITIONS: Table O, enzymatic assay; read-out: CDK2 Ki
# Description: Cyclin Dependent Kinase 1/Cyclin A2 (CDK1-cycA2), Cyclin Dependent Kinase 2/Cyclin E1 (CDK2-cycE1), Cyclin Dependent Kinase 4/Cyclin D3 (CDK4-cycD3) and Cyclin Dependent Kinase 6/Cyclin D3 (CDK6-cycD3) enzyme assays were carried out as described below. […] An Echo acoustic dispenser is used to create dose responses of compound dissolved in DMSO into a 384-well microplate. […] Signal is a ratio of the Acceptor and Donor fluorescence. Inhibition constants are calculated via the Morrison equation. […]
Give the value in nM but do not write nM after it.

// known answers, use as guide
COMPOUND: Cn1nc(Nc2cc([C@H]3CC[C@@H](OC(=O)NC(C)(C)C(F)F)C3)[nH]n2)ccc1=O
NUMERIC VALUE: 0.3
--
COMPOUND: CC(CC(F)(F)F)NC(=O)O[C@@H]1CC[C@H](c2cc(Nc3ccc(=O)n(C)n3)n[nH]2)C1 (stereo partly shown)
NUMERIC VALUE: 0.21
--
COMPOUND: Cc1nc(S(C)(=O)=O)ccc1Nc1cc([C@H]2CC[C@@H](OC(=O)NC(C)(C)C)C2)[nH]n1
NUMERIC VALUE: 2.9

// Ki lookup, compound = `CC(C)(C)NC(=O)O[C@@H]1CC[C@H](c2cc(Nc3ccnnc3)n[nH]2)C1` , result: 0.45

====

In this section, each of the compounds is paired with its reported improvement in potency against CDK2 (Ki) over Comparator C.
# TARGET UNDER TEST: Cyclin Dependent Kinase 2/Cyclin E1 (CDK2-cycE1) (Homo sapiens)
# Construct: purchased ProQinase 0050-0055-1
# PROTOCOL SUMMARY: CDK2-cycE1 TR-FRET (LANCE) enzyme assay;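 on improvement in potency against CDK2 (Ki) over Comparator C: fold lower CDK2 Ki than comparator c (Ki 0.032 µM)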
# Format: biochemical
# Procedure: Cyclin Dependent Kinase 1/Cyclin A2 (CDK1-cycA2), Cyclin Dependent Kinase 2/Cyclin E1 (CDK2-cycE1), Cyclin Dependent Kinase 4/Cyclin D3 (CDK4-cycD3) and Cyclin Dependent Kinase 6/Cyclin D3 (CDK6-cycD3) enzyme assays were carried out as described below. […] An Echo acoustic dispenser is used to create dose responses of compound dissolved in DMSO into a 384-well microplate. […] Signal is a ratio of the Acceptor and Donor fluorescence. Inhibition constants are calculated via the Morrison equation. […]
Give the value in fold but do not write fold after it.

STRUCTURE SMILES: COc1nccc(Nc2cc([C@H]3CC[C@@H](OC(=O)NC(C)C)C3)[nH]n2)n1
MEASURE UNIT: fold
NUMERIC VALUE: 78

STRUCTURE SMILES: CC(C)NC(=O)O[C@@H]1CC[C@H](c2cc(Nc3ccc(-n4ccnc4)cn3)n[nH]2)C1
MEASURE UNIT: fold
NUMERIC VALUE: 10

STRUCTURE SMILES: CC(C)NC(=O)O[C@@H]1CC[C@H](c2cc(Nc3cncnc3)n[nH]2)C1
MEASURE UNIT: fold
NUMERIC VALUE: 9

STRUCTURE SMILES: CC(C)NC(=O)O[C@@H]1CC[C@H](c2cc(Nc3cncc(C(F)(F)F)n3)n[nH]2)C1
MEASURE UNIT: fold
NUMERIC VALUE: 320

improvement in potency against CDK2 (Ki) over Comparator C on Cyclin Dependent Kinase 2/Cyclin E1 (CDK2-cycE1) (Homo sapiens) for `COc1nc(C)ncc1Nc1cc([C@H]2CC[C@@H](OC(=O)NC(C)C)C2)[nH]n1` is 0.15

improvement in potency against CDK2 (Ki) over Comparator C on Cyclin Dependent Kinase 2/Cyclin E1 (CDK2-cycE1) (Homo sapiens) for `CC(C)NC(=O)O[C@@H]1CC[C@H](c2cc(Nc3ccc(-n4cccn4)nc3)n[nH]2)C1` is 2.3

improvement in potency against CDK2 (Ki) over Comparator C on Cyclin Dependent Kinase 2/Cyclin E1 (CDK2-cycE1) (Homo sapiens) for `CC(C)NC(=O)O[C@@H]1CC[C@H](c2cc(Nc3cnccn3)n[nH]2)C1` is 246

improvement in potency against CDK2 (Ki) over Comparator C on Cyclin Dependent Kinase 2/Cyclin E1 (CDK2-cycE1) (Homo sapiens) for `CC(C)NC(=O)O[C@@H]1CC[C@H](c2cc(Nc3cncc(N(C)C)n3)n[nH]2)C1` is 8

====

In this section, each of the molecules is paired with its reported CDK2 Ki fold change in potency versus Comparator E.
# TARGET UNDER TEST: Cyclin Dependent Kinase 2/Cyclin E1 (CDK2-cycE1) (Homo sapiens)
# Construct: purchased ProQinase 0050-0055-1
# PROTOCOL SUMMARY: CDK2-cycE1 TR-FRET (LANCE) enzyme assay
# Format: biochemical
# REPORTED CONDITIONS: Table S, in brackets after CDK2 Ki
Give the value in fold but do not write fold after it.

// known answers, use as guide
STRUCTURE SMILES: CNC(=O)c1ccnc(Nc2cc([C@H]3CC[C@@H](OC(=O)NC(C)(C)C)C3)[nH]n2)c1
TARGET UNDER TEST: Cyclin Dependent Kinase 2/Cyclin E1 (CDK2-cycE1) (Homo sapiens)
NUMERIC VALUE: 0.2
//
STRUCTURE SMILES: Cn1nc(Nc2cc([C@H]3CC[C@@H](OC(=O)NC(C)(C)C)C3)[nH]n2)ccc1=O
TARGET UNDER TEST: Cyclin Dependent Kinase 2/Cyclin E1 (CDK2-cycE1) (Homo sapiens)
NUMERIC VALUE: 5.2
//
STRUCTURE SMILES: CC(C)(C)NC(=O)O[C@@H]1CC[C@H](c2cc(Nc3ccccn3)n[nH]2)C1
TARGET UNDER TEST: Cyclin Dependent Kinase 2/Cyclin E1 (CDK2-cycE1) (Homo sapiens)
NUMERIC VALUE: 0.3
//
STRUCTURE SMILES: Cc1cc(=O)n(C)nc1Nc1cc([C@H]2CC[C@@H](OC(=O)NC(C)(C)C)C2)[nH]n1
TARGET UNDER TEST: Cyclin Dependent Kinase 2/Cyclin E1 (CDK2-cycE1) (Homo sapiens)
NUMERIC VALUE: 0.3
//
STRUCTURE SMILES: CC(C)(C)NC(=O)O[C@@H]1CC[C@H](c2cc(Nc3ccncc3)n[nH]2)C1
TARGET UNDER TEST: Cyclin Dependent Kinase 2/Cyclin E1 (CDK2-cycE1) (Homo sapiens)
NUMERIC VALUE: 0.3

// CDK2 Ki fold change in potency versus Comparator E lookup, molecule = `Cn1cc(Nc2cc([C@H]3CC[C@@H](OC(=O)NC(C)(C)C)C3)[nH]n2)ccc1=O` , result: 0.1

// CDK2 Ki fold change in potency versus Comparator E lookup, molecule = `CC(C)(C)NC(=O)O[C@@H]1CC[C@H](c2cc(Nc3cccnn3)n[nH]2)C1` , result: 0.2

====

# System: SKOV-3 (ATCC HTB-77)
# PROTOCOL SUMMARY: SKOV-3 EdU incorporation cell proliferation assay (CDK4/6-dependent)
# Format: cell-based
# REPORTED CONDITIONS: Table S
MEASUREMENT LABEL: FS SKOV-3/OVISE increased over Comparator E, (+) sign

// known answers, use as guide
COMPOUND: Cc1ccncc1Nc1cc([C@H]2CC[C@@H](OC(=O)NC(C)(C)C)C2)[nH]n1 [Example 4A]
RESULT: (+)

COMPOUND: Cc1cc(=O)n(C)nc1Nc1cc([C@H]2CC[C@@H](OC(=O)NC(C)(C)C)C2)[nH]n1 [Example 4C]
RESULT: (+)

COMPOUND: CNC(=O)c1ccc(Nc2cc([C@H]3CC[C@@H](OC(=O)NC(C)(C)C)C3)[nH]n2)nc1 [Example 4E]
RESULT: (+)

COMPOUND: Cc1ncccc1Nc1cc([C@H]2CC[C@@H](OC(=O)NC(C)(C)C)C2)[nH]n1 [Example 4]
RESULT: (+)

COMPOUND: CC(C)(C)NC(=O)O[C@@H]1CC[C@H](c2cc(Nc3cccnn3)n[nH]2)C1 [Example 4I]
RESULT: (+)

// FS SKOV-3/OVISE increased over Comparator E, (+) sign lookup, compound = CC(C)(C)NC(=O)O[C@@H]1CC[C@H](c2cc(Nc3ccnnc3)n[nH]2)C1 [Example 4K] , result: (+)

// FS SKOV-3/OVISE increased over Comparator E, (+) sign lookup, compound = CC(C)NC(=O)O[C@@H]1CC[C@H](c2cc(Nc3cccnc3)n[nH]2)C1 [Example 2A] , result: (+)

// FS SKOV-3/OVISE increased over Comparator E, (+) sign lookup, compound = CC(C)(C)NC(=O)O[C@@H]1CC[C@H](c2cc(Nc3ccncc3)n[nH]2)C1 [Example 4H] , result: (+)
